Tested on: OVCAR-8
PROTOCOL NOTES: NCI tumour cell line growth inhibition, 48 h
The source made the active and inactive calls. Rule as the data show it: active = GI50 up to about 1.1 µM and inactive = higher.
MEASURE NAME: GI50

A selection of reference data follows.
O=C(O)CC12C3C4C5C3C1C5C42 (stereo not drawn)
> 100 µM (inactive)
COc1ccc(/C=C2\CCC(CCN(C)C)(C3=CCCC3)C2=O)cc1 (stereo not drawn)
16.8 µM (inactive)
O=C/C1=C/C2=Cc3ccccc3C=C(/C=C(/C=O)C1)C2
28.9 µM (inactive)

(Q) What does the record list as GI50 for CCN(CC)c1c(C)nnn1C1OC(COC(C)=O)C(OC(C)=O)C(OC(C)=O)C1OC(C)=O (stereo not drawn) ?
(A) > 100 µM (inactive)

(Q) Which GI50 is listed for O=C1C=C/C(=N/c2ccccc2)c2ccccc21 ?
(A) 11.3 µM (inactive)

(Q) What GI50 value was documented for this molecule, CC1(C)COC(c2ccc(C(F)(F)F)cc2C(O)c2ccc3ccccc3c2)=N1 (stereo not drawn) ?
(A) > 10 µM (inactive)

(Q) Which GI50 is reported for this molecule? N#C/C(=C1\OC(=N)C(c2ccccc2)C1=O)c1ccccc1 (stereo not drawn)
(A) 27.9 µM (inactive)

(Q) Field request: GI50 | item: COC(=O)/C=C\C(C#N)(C#N)/N=C/c1ccc(OC)cc1
(A) 2.89 µM (inactive)

(Q) I would be grateful if you could share the reported GI50 for C/C(=N\c1ccc(Cl)cc1)c1ccncc1 .
(A) > 100 µM (inactive)

(Q) For CCOc1ccccc1/N=N/C1C(=O)N(C(=O)CC(=O)Nc2ccccc2OC)N=C1C (stereo not drawn) , what is its reported GI50?
(A) 37.5 µM (inactive)

(Q) Need GI50 of COC(=O)C(CC(=O)c1c[nH]c2ccccc12)c1c[nH]c2ccccc12 (stereo not drawn) , thanks.
(A) 22.6 µM (inactive)
